Exercise: for every item that follows, state its recorded IC50.
biological target: Geranylgeranyl transferase type I (Homo sapiens, UniProt P49354+P53609); test: Inhibitory activity against geranylgeranyl transferase
Numbers only; they are read as nM.

The reported IC50 of the compound CN1Cc2cncn2Cc2ccc(C#N)c(c2)Oc2ccc3cccc(c3c2)N2CCC1C2=O (configuration not stated) was 2200

The reported IC50 of the compound N#Cc1ccc2cc1Oc1cccc(c1)C(c1cccc(Cl)c1)N1CCC(NCc3cncn3C2)C1=O (single isomer, unassigned; diastereomer B) was 7000

The reported IC50 of the compound N#Cc1ccc2cc1Oc1cccc(c1)-c1ccccc1N1CCC(NCc3cncn3C2)C1=O (configuration not stated) was 810

The reported IC50 of the compound N#Cc1ccc2cc1Oc1cccc(c1)C(c1ccccc1)N1CCC(NCc3cncn3C2)C1=O (stereo in doubt; 26A) was 1600
